Each recorded value in this set is attributed to ChEMBL document CHEMBL5143519.

Below is a list of entries, each paired with its recorded MIC value.
system: Mycobacterium tuberculosis; assay: Antimycobacterial activity against Mycobacterium tuberculosis H37Rv assessed as inhibition of bacterial growth incubated for 7 days by microplate alamar blue assay; type: functional; settings: 168 h, time 7 day
Parameter measured: MIC

> print(dat)
                         compound.structure               tested.system  measured.value
1  CCOC(=O)NC(=O)c1ccsc1NC(=O)c1ccc(C#N)cc1  Mycobacterium tuberculosis        > 300 µM
2  CCOC(=O)NC(=O)c1ccsc1NC(=O)c1ccc(C(C)=O)cc1  Mycobacterium tuberculosis        > 300 µM
3  O=C(NC(=O)c1ccsc1NC(=O)c1nc2ccccc2s1)OCC1CCCCC1  Mycobacterium tuberculosis        > 250 µM
4  O=C(NC(=O)c1ccsc1NC(=O)c1nc2ccccc2s1)OC1CCC1  Mycobacterium tuberculosis        > 250 µM
5  CCOC(=O)NC(=O)c1ccsc1NC(=O)c1ccc(C#N)cn1  Mycobacterium tuberculosis        > 300 µM
6  N#Cc1ccc(C(=O)Nc2sccc2C(=O)NC(=O)OCC2CC2)cc1  Mycobacterium tuberculosis        > 250 µM
7  O=C(NC(=O)c1ccsc1NC(=O)c1nc2ccccc2s1)OCC1CCCC1  Mycobacterium tuberculosis        > 250 µM
